Attribution: patent US20030073218A1

# assay system: Cdc28-as1 · MBP-Clb2 (Saccharomyces cerevisiae, UniProt P00546, F88G)
# Construct: bacteria (MBP-Clb2)
# Sequence (P00546 whole entry F88G): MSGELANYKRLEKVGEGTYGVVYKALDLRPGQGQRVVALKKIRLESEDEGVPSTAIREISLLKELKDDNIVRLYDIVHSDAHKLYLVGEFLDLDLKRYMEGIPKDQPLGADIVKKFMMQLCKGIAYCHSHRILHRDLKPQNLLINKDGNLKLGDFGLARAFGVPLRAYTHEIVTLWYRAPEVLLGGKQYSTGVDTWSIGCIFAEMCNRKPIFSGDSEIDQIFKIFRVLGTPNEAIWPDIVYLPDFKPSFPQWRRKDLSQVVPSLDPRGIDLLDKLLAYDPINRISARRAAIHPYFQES
# Sequence (P24869 whole entry, further chain): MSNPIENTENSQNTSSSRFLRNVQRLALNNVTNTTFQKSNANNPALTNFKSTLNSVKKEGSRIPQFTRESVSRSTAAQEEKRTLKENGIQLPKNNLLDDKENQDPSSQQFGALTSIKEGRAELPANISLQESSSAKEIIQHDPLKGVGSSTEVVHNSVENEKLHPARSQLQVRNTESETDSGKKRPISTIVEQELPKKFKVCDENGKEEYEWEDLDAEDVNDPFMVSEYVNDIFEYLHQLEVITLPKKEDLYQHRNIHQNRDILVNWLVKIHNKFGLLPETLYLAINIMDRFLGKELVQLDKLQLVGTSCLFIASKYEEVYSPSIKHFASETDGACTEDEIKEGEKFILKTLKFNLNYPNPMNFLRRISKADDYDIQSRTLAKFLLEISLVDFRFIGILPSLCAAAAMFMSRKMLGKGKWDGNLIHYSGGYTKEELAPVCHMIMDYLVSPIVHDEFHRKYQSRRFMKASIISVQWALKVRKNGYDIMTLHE
# procedure text: 1-NM-PP1 IC50, Histone H1 kinase assay
# conditions used: 1 MM ATP
pIC50: −log10 of the molar value.
property label: pIC50

Any idea what pIC50 was measured for CC(C)(C)n1nc(Cc2cccc3ccccc23)c2c(N)ncnc21 [Compound 6h] ?
~8.52

====

# assay system: UniProt:P06241
# Sequence (P06241 1-534 isoform P06241-2, species assumed): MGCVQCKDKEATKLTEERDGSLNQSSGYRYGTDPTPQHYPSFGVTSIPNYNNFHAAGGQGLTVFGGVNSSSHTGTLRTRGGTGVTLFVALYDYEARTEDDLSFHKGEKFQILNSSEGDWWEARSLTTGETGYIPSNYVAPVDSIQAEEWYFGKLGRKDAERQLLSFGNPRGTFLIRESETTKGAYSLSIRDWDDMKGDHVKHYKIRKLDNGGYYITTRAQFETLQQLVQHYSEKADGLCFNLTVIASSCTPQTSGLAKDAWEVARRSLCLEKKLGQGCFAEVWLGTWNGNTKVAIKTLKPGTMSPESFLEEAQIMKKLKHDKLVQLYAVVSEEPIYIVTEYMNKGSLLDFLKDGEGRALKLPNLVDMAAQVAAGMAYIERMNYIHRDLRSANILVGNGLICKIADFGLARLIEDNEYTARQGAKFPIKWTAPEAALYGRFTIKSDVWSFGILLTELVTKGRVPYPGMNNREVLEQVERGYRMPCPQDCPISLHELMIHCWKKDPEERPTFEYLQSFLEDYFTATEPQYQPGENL
pIC50: −log10 of the molar value.
property label: pIC50

Quick one: pIC50 of CC(C)(C)n1nc(-c2ccccc2)c2c(NC(=O)c3ccccc3)ncnc21 ?
< 3.40
